- System name: T1, His-Fibronectin type III domain (426-540) (human, UniProt P29317 426-540)
- T1 construct: also called His-Fibrinctin type III domain (426-540); Fibronectin type III domain of EPHA2; not shown: histidine tag added to the amino terminus
- T1 sequence (P29317 426-540): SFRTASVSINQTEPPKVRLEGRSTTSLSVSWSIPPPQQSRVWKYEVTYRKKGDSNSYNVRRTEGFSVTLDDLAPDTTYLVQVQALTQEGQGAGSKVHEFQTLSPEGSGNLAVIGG
- Test: SPR (Biacore T100), antibody captured on anti-human IgG(Fc), antigen as analyte, 1:1 model
pKd: −log10 of the molar value.

Binder	pKd
348-H4-357-L4 (antibody, human IgG1, kappa, V domains shown, human IgG1 / kappa; also called antibody of humanized heavy chain of SH348-1 and humanized light chain of SH357-1; swapped antibody) VH: QVQLVQSGAEVKKPGASVKVSCKASGYTFTHYSMHWVRQAPGQGLEWMGWINTYTGEPTYADDFKGRFVFSLDTSVSTAYLQLSSLKAEDTAVYYCATYYRYERDFDYWGQGTLVTVSS VL: DIVMTQSPLSLPVTPGEPASISCRSSQSIVHSSGITYLEWYLQKPGQSPQLLIYKVSNRFSGVPDRFSGSGSGTDFTLKISRVEAEDVGVYYCFQGSHVPYTFGQGTKVEIKR	9.43
348-H5-357-L4 (antibody, human IgG1, kappa, V domains shown, human IgG1 / kappa) VH: QVQLVQSGAEVKKPGASVKVSCKASGYTFTHYSMHWVKQAPGQGLKWMGWINTYTGEPTYADDFKGRFAFSLETSVSTAYLQLSSLKAEDTAVYFCATYYRYERDFDYWGQGTLVTVSS VL: DIVMTQSPLSLPVTPGEPASISCRSSQSIVHSSGITYLEWYLQKPGQSPQLLIYKVSNRFSGVPDRFSGSGSGTDFTLKISRVEAEDVGVYYCFQGSHVPYTFGQGTKVEIKR	9.49
348-H5-357-L5 (antibody, human IgG1, kappa, V domains shown, human IgG1 / kappa) VH: QVQLVQSGAEVKKPGASVKVSCKASGYTFTHYSMHWVKQAPGQGLKWMGWINTYTGEPTYADDFKGRFAFSLETSVSTAYLQLSSLKAEDTAVYFCATYYRYERDFDYWGQGTLVTVSS VL: DVLMTQSPLSLPVTPGEPASISCRSSQSIVHSSGITYLEWYLQKPGQSPKLLIYKVSNRFSGVPDRFSGSGSGTDFTLKISRVEAEDVGVYYCFQGSHVPYTFGQGTKVEIKR	9.52
348-H4-357-L5 (antibody, human IgG1, kappa, V domains shown, human IgG1 / kappa) VH: QVQLVQSGAEVKKPGASVKVSCKASGYTFTHYSMHWVRQAPGQGLEWMGWINTYTGEPTYADDFKGRFVFSLDTSVSTAYLQLSSLKAEDTAVYYCATYYRYERDFDYWGQGTLVTVSS VL: DVLMTQSPLSLPVTPGEPASISCRSSQSIVHSSGITYLEWYLQKPGQSPKLLIYKVSNRFSGVPDRFSGSGSGTDFTLKISRVEAEDVGVYYCFQGSHVPYTFGQGTKVEIKR	9.43
